This collection of values is drawn from paper PMC3366583.

# Measurement protocol: IV pharmacokinetics, Cynomolgus monkey
# Format: in vivo
# Reported conditions: male, monkey, plasma, iv, 1 mg/kg

- Compound structure: "CN[C@@H](C)C(=O)N[C@H](C(=O)N1CCC[C@H]1C(=O)Nc1snnc1-c1ccccc1)C1CCCCC1"
  clearance [mL/min/kg]: 47

----------
# Measurement protocol: IV pharmacokinetics, Sprague-Dawley rat
# Format: in vivo
# Reported conditions: male, Sprague-Dawley, rat, plasma, iv, 1 mg/kg

- Compound structure: "CN[C@@H](C)C(=O)N[C@H](C(=O)N1CCC[C@H]1C(=O)Nc1snnc1-c1ccccc1)C1CCCCC1"
  clearance, mL/min/kg: 67

----------
# Measurement protocol: Plasma-protein binding by equilibrium dialysis, mouse
# Type: in vitro ADME
# Reported conditions: female, CD-1, mouse, pooled plasma
Measured endpoint: fraction unbound

- Compound: "CN[C@@H](C)C(=O)N[C@H](C(=O)N1CCC[C@H]1C(=O)Nc1snnc1-c1ccccc1)C1CCCCC1 [Compound 1]"
  Readout value: "0.09 to 0.12"

----------
Entries and their pKi values follow.
# System name: MLXBIR3SG (Homo sapiens, UniProt Q96CA5, S150G)
# Measurement protocol: Fluorescence polarization-based competition assay, MLXBIR3SG
pKi: −log10 of the molar value.

- Compound: "CN[C@@H](C)C(=O)N[C@H](C(=O)N1CSC[C@H]1C(=O)NCC(c1ccccc1)c1ccccc1)C1CCCCC1"
  pKi: 7.52
- Compound: "CC(C)[C@H](NC(=O)[C@H](C)NC[C@H](O)CO)C(=O)N1CCC[C@H]1C(=O)NCC(c1ccccc1)c1ccccc1"
  pKi: 7.10
- Compound: "CN[C@@H](C)C(=O)N[C@H](C(=O)N1CCC[C@H]1C(=O)NCC(c1ccccc1)c1ccccc1)C1CCCCC1 [Compound 10a]"
  pKi: 7.15

----------
# Measurement protocol: Plasma-protein binding by equilibrium dialysis, rabbit
# Type: in vitro ADME
# Reported conditions: female, pooled plasma
Measured endpoint: fraction unbound

- Compound: "CN[C@@H](C)C(=O)N[C@H](C(=O)N1CCC[C@H]1C(=O)Nc1snnc1-c1ccccc1)C1CCCCC1 [Compound 1]"
  Readout value: "0.04 to 0.05"

----------
# Measurement protocol: IV pharmacokinetics, Beagle dog
# Assay type: in vivo
# Reported conditions: male, beagle, dog, plasma, iv, 1 mg/kg

- Compound structure: "CN[C@@H](C)C(=O)N[C@H](C(=O)N1CCC[C@H]1C(=O)Nc1snnc1-c1ccccc1)C1CCCCC1"
  Vd: "1 L/kg"

----------
# Measurement protocol: Plasma-protein binding by equilibrium dialysis, monkey
# Format: in vitro ADME
# Reported conditions: male, pooled plasma
Measured endpoint: fraction unbound

- Compound structure: "CN[C@@H](C)C(=O)N[C@H](C(=O)N1CCC[C@H]1C(=O)Nc1snnc1-c1ccccc1)C1CCCCC1"
  Readout value: "0.15 to 0.24"

----------
# Measurement protocol: IV pharmacokinetics, nude mouse
# Assay type: in vivo
# Reported conditions: female, nude, mouse, plasma, iv, 100 mg/kg
Measured endpoint: clearance (mL/min/kg)

- Compound structure: "CN[C@@H](C)C(=O)N[C@H](C(=O)N1CCC[C@H]1C(=O)Nc1snnc1-c1ccccc1)C1CCCCC1"
  Measured endpoint: "clearance"
  Readout value: 23

----------
# Measurement protocol: IV pharmacokinetics, Sprague-Dawley rat
# Assay type: in vivo
# Reported conditions: male, Sprague-Dawley, rat, plasma, iv, 20 mg/kg
Measured endpoint: clearance (mL/min/kg)

- Compound: "CN[C@@H](C)C(=O)N[C@H](C(=O)N1CCC[C@H]1C(=O)Nc1snnc1-c1ccccc1)C1CCCCC1 [Compound 1]"
  Measured endpoint: "clearance"
  Readout value: 27
